Below is a list of entries, each paired with its recorded pEC50 value.
tested on: INS-1 cells; assay: INS-1 cell survival after Tm treatment (CellTiter-Glo, intracellular ATP); assay type: cell-based, rat; settings: INS-1 cell viability, Tm 0.1 μg/mL, 72 h; ten 2-fold serial titration points; Table 3; read-out: EC50
When answering, recall that pEC50 equals minus log10 of the concentration in mol/L, and write that number alone.

Bench note: what pEC50 did OCC1CCCCN1c1nc(NCc2ccc(Cl)cc2)c2ccccc2n1 (centres unmarked) [Compound 9b] show?
6.68

***
For OCC1CCCCN1c1nc(NCc2ccccc2)c2ccccc2n1 (centres unmarked) [Compound 9a] , what is its reported pEC50?
6.64

Any idea what pEC50 was measured for COc1ccc(CNc2nc(N3CCCCC3CO)nc3ccccc23)cc1OC (centres unmarked) [Compound 9d] ?
5.44

For the compound shown here, COc1ccc(CNc2nc(N3CCCC3CO)nc3ccccc23)cc1OC (centres unmarked) [Compound 8d] , give the reported pEC50.
5.73

// pEC50 lookup, key: COc1ccc(CNc2nc(N3CCCC3CO)nc3ccccc23)cc1 (centres unmarked) [Compound 8c]
5.39
